molecular target: Cellular tumor antigen p53 (Homo sapiens) (UniProt P04637); experiment: TOX21_p53_BLA_p4_ratio: Tox21 HCT-116 p53 Agonism Beta-lactamase Assay, Ratio, Phase 4 (AID 2283601)
Sequence (P04637 whole entry, looked up): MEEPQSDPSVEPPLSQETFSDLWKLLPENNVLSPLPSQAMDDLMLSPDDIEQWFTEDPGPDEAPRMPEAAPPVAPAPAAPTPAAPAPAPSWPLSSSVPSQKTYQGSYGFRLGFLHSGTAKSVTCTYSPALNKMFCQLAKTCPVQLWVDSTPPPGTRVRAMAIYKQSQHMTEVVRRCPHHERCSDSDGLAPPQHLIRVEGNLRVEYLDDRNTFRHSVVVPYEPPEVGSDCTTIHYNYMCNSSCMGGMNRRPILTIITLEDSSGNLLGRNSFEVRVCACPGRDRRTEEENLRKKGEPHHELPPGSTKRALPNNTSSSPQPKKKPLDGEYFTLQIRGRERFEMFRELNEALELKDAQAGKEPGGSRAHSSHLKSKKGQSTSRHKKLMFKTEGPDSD
Results filed as inconclusive are left out. Active and inactive are the calls of the source. Rule for the calls: active = hit-call score of the fitted dose curve at least 0.9, where 1 is the maximum; inconclusive = response in the unintended direction; inactive = score below 0.9.

[
  {
    "compound": "CCOC(=O)Cc1cccc(-c2cc(CCCCCCc3ccc(O[C@H]4O[C@H](COC(C)=O)[C@@H](OC(C)=O)[C@H](OC(C)=O)[C@@H]4OC(C)=O)c(-c4cccc(CC(=O)OCC)c4)c3)ccc2O[C@H]2O[C@H](COC(C)=O)[C@@H](OC(C)=O)[C@H](OC(C)=O)[C@@H]2OC(C)=O)c1",
    "AC50": "inactive"
  },
  {
    "compound": "Nc1nc(-c2ccccc2)c(Br)c(=O)[nH]1",
    "AC50": "inactive"
  },
  {
    "compound": "NC(=O)n1c(O)c(C(=O)c2cccs2)c2cc(Cl)ccc21",
    "AC50": "inactive"
  },
  {
    "compound": "Cc1nc2n(c(=O)c1CCN1CCC(c3noc4cc(F)ccc34)CC1)CCC[C@H]2O",
    "AC50": "inactive"
  },
  {
    "compound": "Cc1cc(C(C)(C)C)c(O)c(C)c1Cn1c(=O)n(Cc2c(C)cc(C(C)(C)C)c(O)c2C)c(=O)n(Cc2c(C)cc(C(C)(C)C)c(O)c2C)c1=O",
    "AC50": "inactive"
  },
  {
    "compound": "CCCCCCCCCCCCCCC[C@H](O)[C@@H](N)CO",
    "AC50": "inactive"
  },
  {
    "compound": "OC[C@H]1O[C@@H](O[C@@H]2[C@@H](CO)O[C@](O)(CO)[C@H]2O)[C@H](O)[C@@H](O)[C@H]1O",
    "AC50": "inactive"
  },
  {
    "compound": "C[C@]12CCC(=O)C=C1CC[C@@H]1[C@@H]2[C@@H](O)C[C@@]2(C)[C@H]1CC[C@]2(O)C(=O)COP(=O)(O)O",
    "AC50": "inactive"
  },
  {
    "compound": "CN1C(=O)CN2CCc3ccccc3C2c2cc(Cl)ccc21 (centres undefined)",
    "AC50": "33.8 µM (active)"
  },
  {
    "compound": "O=S(=O)(O)c1cc(I)c(O)c2ncccc12",
    "AC50": "inactive"
  },
  {
    "compound": "C[C@]12CCC(=O)C=C1CC[C@@H]1[C@@H]2[C@@H](O)C[C@@]2(C)[C@H]1CC[C@]2(O)C(=O)COC(=O)CCC(=O)O",
    "AC50": "inactive"
  },
  {
    "compound": "C=CCN1C(=O)C(CC(C)C)NC1=S (centres undefined)",
    "AC50": "inactive"
  },
  {
    "compound": "CC(=O)c1nccs1",
    "AC50": "inactive"
  },
  {
    "compound": "OCc1cc(C(O)CNCCCCCCOCCCCc2ccccc2)ccc1O (centres undefined)",
    "AC50": "inactive"
  },
  {
    "compound": "CCN(CC)CCc1nc(-c2ccccc2)no1",
    "AC50": "inactive"
  },
  {
    "compound": "O=S(=O)(O)CC(S)CS (centres undefined)",
    "AC50": "inactive"
  },
  {
    "compound": "CC(=O)c1sc(C)nc1C",
    "AC50": "inactive"
  },
  {
    "compound": "CCCC(CCC)C(=O)OC1C[C@H]2CC[C@@H](C1)[N+]2(C)C (some centres undefined)",
    "AC50": "inactive"
  },
  {
    "compound": "Oc1cc(O)c(Cl)cc1Cl",
    "AC50": "inactive"
  },
  {
    "compound": "COc1ccccc1N1CCN(CCCCNC(=O)c2ccc(-c3ccc(C(C)=O)cc3)cc2)CC1",
    "AC50": "inactive"
  },
  {
    "compound": "COc1ccc2cc1Oc1cc3c(cc1OC)CC[N+](C)(C)[C@H]3Cc1ccc(cc1)Oc1c(OC)c(OC)cc3c1[C@@H](C2)[N+](C)(C)CC3",
    "AC50": "inactive"
  },
  {
    "compound": "O=P(O)(OCc1ccccc1)OCc1ccccc1",
    "AC50": "inactive"
  },
  {
    "compound": "Cc1cc2cc3c(C)cc(=O)oc3c(C)c2o1",
    "AC50": "inactive"
  },
  {
    "compound": "Cc1cccc(Nc2ncccc2C(=O)O)c1C",
    "AC50": "inactive"
  },
  {
    "compound": "CCOC(=O)c1c[nH]c2cc(OCC(C)C)c(OCC(C)C)cc2c1=O",
    "AC50": "inactive"
  },
  {
    "compound": "CCCCC(=O)O[C@H]1CC[C@H]2[C@@H]3CCc4cc(O)ccc4[C@H]3CC[C@]12C",
    "AC50": "inactive"
  },
  {
    "compound": "CCCOCCC",
    "AC50": "inactive"
  },
  {
    "compound": "CCN(CC)CCCN(c1ccccc1)C1Cc2ccccc2C1",
    "AC50": "23 µM (active)"
  },
  {
    "compound": "CCCCCCC(O)CCCCCCCCCCC(=O)OC (centres undefined)",
    "AC50": "inactive"
  },
  {
    "compound": "O=C(O)/C=C/c1ccc(Cn2ccnc2)cc1",
    "AC50": "inactive"
  },
  {
    "compound": "CCCN1C[C@H](CSC)C[C@@H]2c3cccc4[nH]cc(c34)C[C@H]21",
    "AC50": "inactive"
  },
  {
    "compound": "CC(C)=CCC1C(=O)N(c2ccccc2)N(c2ccccc2)C1=O",
    "AC50": "inactive"
  },
  {
    "compound": "CN(C)CC/C=C1\\c2ccccc2Sc2ccc(Cl)cc21",
    "AC50": "21.9 µM (active)"
  },
  {
    "compound": "CCCCCCCCCCCCOC(=O)c1ccc(O)cc1",
    "AC50": "inactive"
  },
  {
    "compound": "CC(=O)OC(C)(C)Cc1ccccc1",
    "AC50": "inactive"
  },
  {
    "compound": "CC(C(=O)O)c1ccc(C(=O)c2ccccc2)s1 (centres undefined)",
    "AC50": "inactive"
  },
  {
    "compound": "Clc1cccc(Cl)c1NC1=NCCN1",
    "AC50": "inactive"
  },
  {
    "compound": "Oc1ccc(Sc2ccc(O)cc2)cc1",
    "AC50": "inactive"
  },
  {
    "compound": "C=C1CC2C3CCC4=CC(=O)C=C[C@]4(C)[C@@]3(F)[C@@H](O)C[C@]2(C)[C@@]1(O)C(=O)COC(C)=O (some centres undefined)",
    "AC50": "inactive"
  },
  {
    "compound": "COc1ccc2nc(NC(=O)Nc3ccccc3)sc2c1",
    "AC50": "inactive"
  },
  {
    "compound": "O=C1c2ccccc2C(=O)N1CCl",
    "AC50": "inactive"
  },
  {
    "compound": "C[C@H]1C[C@H]2[C@@H]3CCC4=CC(=O)C=C[C@]4(C)[C@@]3(Cl)[C@@H](O)C[C@]2(C)[C@@]1(O)C(=O)CO",
    "AC50": "inactive"
  },
  {
    "compound": "CC(N)C(=O)OC(C)(C)Cc1ccc(Cl)cc1 (centres undefined)",
    "AC50": "inactive"
  },
  {
    "compound": "NC(=O)Nc1ccc(Cl)c(Cl)c1",
    "AC50": "inactive"
  }
]

###

assay: TOX21_p53_BLA_p3_viability: Viability Assessment in the Tox21 HCT-116 p53 Agonism Beta-lactamase Assay, Phase 3 (AID 2283593);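 note: cells exposed to compound for 16 h before reading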
Records with an inconclusive call do not appear. Calls of active or inactive are those of the source. The calls were made as follows: active = hit-call score of the fitted dose curve at least 0.9, where 1 is the maximum; inconclusive = response in the unintended direction; inactive = score below 0.9.
Possible outcomes: true (1) for active, false (0) for inactive

[
  {
    "compound": "O=P(O)(O)OC(Cn1cncn1)(Cn1cncn1)c1ccc(F)cc1F",
    "answer-label": "false (0)"
  },
  {
    "compound": "CCSC(=O)N(CC)CC",
    "answer-label": "false (0)"
  },
  {
    "compound": "CC1=C(O)C(=O)OC1C (centres undefined)",
    "answer-label": "false (0)"
  },
  {
    "compound": "O=CC=C(c1ccccc1)c1ccccc1",
    "answer-label": "true (1)"
  },
  {
    "compound": "CCOC(=O)COc1ccc2c(C)c(CCN(CC)CC)c(=O)oc2c1Cl",
    "answer-label": "false (0)"
  },
  {
    "compound": "CCCCCCCN(CC)CCCC(O)c1ccc(NS(C)(=O)=O)cc1 (centres undefined)",
    "answer-label": "false (0)"
  },
  {
    "compound": "O=C1CCCCO1",
    "answer-label": "false (0)"
  },
  {
    "compound": "CCCC(=O)N1CCCN(c2nc(N)c3cc(OC)c(OC)cc3n2)CC1",
    "answer-label": "false (0)"
  },
  {
    "compound": "CC(=O)O[C@H]1C(=O)[C@@]2(C)[C@H]([C@H](OC(=O)c3ccccc3)[C@]3(O)C[C@H](OC(=O)[C@H](O)[C@@H](NC(=O)c4ccccc4)c4ccccc4)C(C)=C1C3(C)C)[C@]1(OC(C)=O)CO[C@@H]1C[C@@H]2O",
    "answer-label": "false (0)"
  },
  {
    "compound": "C=CC(=O)O",
    "answer-label": "false (0)"
  },
  {
    "compound": "CCOC(=O)c1ccccc1",
    "answer-label": "false (0)"
  },
  {
    "compound": "CCCCCCCCCCCC(=O)OC[C@@H](O)[C@H]1OC[C@H](OCCO)[C@H]1OCCO",
    "answer-label": "false (0)"
  },
  {
    "compound": "CCOC(=O)[C@H](CCc1ccccc1)N[C@@H](C)C(=O)N1Cc2ccccc2C[C@H]1C(=O)O",
    "answer-label": "false (0)"
  },
  {
    "compound": "COc1cc2[nH]c(=O)[nH]c(=O)c2cc1OC",
    "answer-label": "false (0)"
  },
  {
    "compound": "CCCCOC(=O)c1ccc(N)cc1",
    "answer-label": "false (0)"
  },
  {
    "compound": "CN(C)Cc1cc(C(C)(C)C)c(O)c(C(C)(C)C)c1",
    "answer-label": "false (0)"
  },
  {
    "compound": "CCC(C(=O)OCCN(CC)CC)c1ccccc1 (centres undefined)",
    "answer-label": "false (0)"
  },
  {
    "compound": "CCCCC(CC)CN=C(N)NC(N)=NCCCCCCN=C(N)NC(N)=NCC(CC)CCCC (centres undefined)",
    "answer-label": "true (1)"
  },
  {
    "compound": "CCCC1C(CC)=CC(CC)=CN1c1ccccc1 (centres undefined)",
    "answer-label": "false (0)"
  },
  {
    "compound": "CCC(=C(CC)c1ccc(O)cc1)c1ccc(O)cc1",
    "answer-label": "false (0)"
  },
  {
    "compound": "CS(=O)(=O)Nc1cc2occ(NC=O)c(=O)c2cc1Oc1ccccc1",
    "answer-label": "false (0)"
  },
  {
    "compound": "O[C@@H]([C@H](O)[C@H](O)CBr)[C@H](O)CBr",
    "answer-label": "false (0)"
  },
  {
    "compound": "CC(C)n1c(/C=C/[C@@H](O)C[C@@H](O)CC(=O)O)c(-c2ccc(F)cc2)c2ccccc21",
    "answer-label": "false (0)"
  },
  {
    "compound": "O=C(NC1CCN(CCc2c[nH]c3ccccc23)CC1)c1ccccc1",
    "answer-label": "false (0)"
  }
]
